Attribution: the supplement of paper PMC9942255

Test system: Bacillus subtilis DB104 (SP-AmyQ fusion secretion)
experiment-summary: AmyQ secretion efficiency, weighted average sort bin (1 = best secretion, 10 = worst) (bin number (weighted average, 1-10)); higher = lower secretion efficiency
Use true when the recorded AmyQ secretion efficiency is no lower than 5; use false when it is lower.

{"columns": ["sequence-content", "label"],
 "data": [
  ["MKLKSKLLLSCLALSTVFVATTIANAPRR", "true"],
  ["MKKAAAVLLSLGLVFGFSYGAGHVDEAKTK", "true"],
  ["MFMKHTISLLIIFLLASAVLAKPIEAHTV", "false"],
  ["MKLRKVLTGSVLSLGLLRKKSPAFATSP", "true"],
  ["MKKRITYSLLALLAVVAFAFTRSSKAKAAEA", "false"],
  ["MRKKLKWLSFLLGFIILLFLFTFGFSNNDS", "true"],
  ["MGFGSTLVVSALSISALALSVSGVASAHEI", "false"],
  ["MKRFSTAYLLLGILCSAAVFLIGAPSRALGAPK", "false"],
  ["MKIRKILLSSALSFGMLISAVPALNAGT", "true"],
  ["MKKAAAVLLSLGLVFGFSYGAGHVAEAATD", "false"],
  ["MKTKTLFIFSAILTLSIFAPNESFAQTA", "false"],
  ["MKRTWNVCLTALLSVLLVAGSVGFVAEAKKP", "false"]
]}
